experiment: Volume of distribution at steady state in rat at 2 mg/kg, iv; assay type: ADME, organism-based; design: dose 2 mg/kg, route intravenous; settings: in vivo, read-out: Vdss

# smiles_text, Vd
data = [
    ("O=C(NCc1ccncn1)c1ccc(Oc2ccc(C#C[C@]3(O)CN4CCC3CC4)cc2)cc1", "2.4 L/kg"),
]
